- assay_target: Histone deacetylase 1 (Homo sapiens)
- Sequence (Q13547 whole entry): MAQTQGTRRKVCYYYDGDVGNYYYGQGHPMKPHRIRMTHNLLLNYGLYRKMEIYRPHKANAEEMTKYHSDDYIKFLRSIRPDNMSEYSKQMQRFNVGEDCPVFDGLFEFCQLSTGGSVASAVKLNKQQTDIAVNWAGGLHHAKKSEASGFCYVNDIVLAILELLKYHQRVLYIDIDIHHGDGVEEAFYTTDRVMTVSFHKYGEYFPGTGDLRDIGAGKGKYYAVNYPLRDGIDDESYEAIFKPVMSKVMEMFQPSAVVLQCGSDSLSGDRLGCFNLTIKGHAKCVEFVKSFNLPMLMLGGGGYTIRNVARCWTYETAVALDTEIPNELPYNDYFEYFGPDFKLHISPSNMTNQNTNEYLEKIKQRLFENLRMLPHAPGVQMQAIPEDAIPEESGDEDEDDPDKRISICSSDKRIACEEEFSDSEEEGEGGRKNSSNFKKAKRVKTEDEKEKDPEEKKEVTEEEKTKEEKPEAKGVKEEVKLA
- test_description: Inhibition of human recombinant HDAC1 using Ac-Lys(Ac)-7-amino-4-methylcoumarin as substrate after 30 mins by trypsin-coupled fluorogenic assay
value_kind: IC50 (nM)

Consider the following illustrative entries.
[
  {
    "structure_smiles_string": "CCC(=O)CCCCC[C@@H]1NC(=O)[C@H](CCCCNC(C)=O)NC(=O)CCN(CC(C)C)C(=O)CN(CCc2c[nH]c3ccccc23)C1=O",
    "assay_target": "Histone deacetylase 1 (Homo sapiens)",
    "value_kind": "IC50",
    "quantitative_readout": 200
  },
  {
    "structure_smiles_string": "CCC(=O)CCCCC[C@@H]1NC(=O)[C@H](CCCNC(=N)N)NC(=O)CCN(CC=C(C)C)C(=O)CN(CCc2c[nH]c3ccccc23)C1=O",
    "assay_target": "Histone deacetylase 1 (Homo sapiens)",
    "value_kind": "IC50",
    "quantitative_readout": 700
  }
]

(A) CCC(=O)CCCCC[C@@H]1NC(=O)[C@H](C)N(C)C(=O)CCN(CC(C)C)C(=O)CN(CCc2c[nH]c3ccccc23)C1=O
(B) CCC(=O)CCCCC[C@@H]1NC(=O)[C@H](CCCNC(=N)N)NC(=O)CCN(CC(C)C)C(=O)CN(CCc2c[nH]c3ccccc23)C1=O
Looking at recorded values for IC50, does A or B come in lower? Identify your selection by its label.
B

* * *

Below, each entry is listed alongside its reported GI50.
- Tested on: K562
- test_description: Cytotoxicity against human K562 cells after 72 hrs by XTT assay
- Assay type: functional
- measurement_parameters: K562, 72 h
Form entry: value (µM) — number only.

[
  {
    "structure_smiles_string": "CCC(=O)CCCCC[C@@H]1NC(=O)[C@H]2CCCCN2C(=O)[C@H]([C@@H](C)CC)NC(=O)[C@H](Cc2cn(OC)c3ccccc23)NC1=O",
    "unit_of_measurement": "µM",
    "GI50": 1.5
  },
  {
    "structure_smiles_string": "CCC(=O)CCCCC[C@@H]1NC(=O)[C@H](C)N(C)C(=O)C[C@H](CC(C)C)NC(=O)[C@H](Cc2c[nH]c3ccccc23)NC1=O",
    "unit_of_measurement": "µM",
    "GI50": 7
  },
  {
    "structure_smiles_string": "CCC(=O)CCCCC[C@@H]1NC(=O)[C@H](C)N(C)C(=O)CCN(CC(C)C)C(=O)CN(CCc2c[nH]c3ccccc23)C1=O",
    "unit_of_measurement": "µM",
    "GI50": 15
  }
]

Query molecule follows.
Reported GI50 ( `CCC(=O)CCCCC[C@@H]1NC(=O)[C@H](CCCCNC(C)=O)NC(=O)CCN(CC(C)C)C(=O)CN(CCc2c[nH]c3ccccc23)C1=O` ) = 1.5

* * *

Below, each entry is listed with its recorded GI50.
- System: MCF7
- test_description: Cytotoxicity against human MCF7 cells after 72 hrs by XTT assay
- Format: functional
- measurement_parameters: MCF7, 72 h

[
  {
    "structure_smiles_string": "CCC(=O)CCCCC[C@@H]1NC(=O)[C@H](CCCNC(=N)N)NC(=O)CCN(CC=C(C)C)C(=O)CN(CCc2c[nH]c3ccccc23)C1=O",
    "GI50": "> 50 µM"
  }
]

Form field GI50, entry `CCC(=O)CCCCC[C@@H]1NC(=O)[C@H](C)N(C)C(=O)C[C@H](CC(C)C)NC(=O)[C@H](Cc2c[nH]c3ccccc23)NC1=O` : 18 µM

Measured GI50 of `CCC(=O)CCCCC[C@@H]1NC(=O)[C@H](CCCNC(=N)N)NC(=O)CCN(CC(C)C)C(=O)CN(CCc2c[nH]c3ccccc23)C1=O` : > 50 µM
